MEASUREMENT_PROTOCOL: NCI Yeast Anticancer Drug Screen. Data for the mgt1 strain (AID 153)
TEST_CONDITIONS: S. cerevisiae mgt1 mutant growth inhibition; at 1.2 µM; stronger effect = higher value
About 79,000 compounds went through this panel and 15% of them were active in at least one assay; those are over-represented in the sample as a whole.
Hi there, I'd appreciate the recorded growth inhibition for every entry that follows.
One number for each entry, in %.

Here are 8 compounds together with their reported answers.
>>> observed_measurement("COc1ccc(C(C#N)=C2C=CC(=NO)C=C2)cc1")
0
>>> observed_measurement("O=[N+]([O-])c1cc(S(=O)(=O)Nc2ccccc2)ccc1Cl")
15
>>> observed_measurement("O=c1[nH]c2ccccc2c2nc3ccccc3n12")
-34
>>> observed_measurement("Cn1c2nc3ccccc3c-2nc2ccccc21")
4
>>> observed_measurement("CC1CCC2(C(=O)O)CCC3(C)C(=CCC4C5(C)CC(O)C(O)C(C)(CO)C5C(O)CC43C)C2C1C (stereo not drawn)")
-34
>>> observed_measurement("O=NN(CCCl)C(=O)NC1CCCCC1")
-3
>>> observed_measurement("O=C(/C=C/c1cccc2ccccc12)c1ccc(Cl)cc1")
13
>>> observed_measurement("Cc1cc(C)c(N2C(=O)CC(Sc3ccccc3N)C2=O)c(C)c1 (stereo not drawn)")
-57

The following compounds each have a reported value; give each one's growth inhibition.
1. Cc1ccc(I)cc1N=C=S
2. COc1ccc2oc(-c3ccc(Cl)cc3)c(N3CCN(C)CC3)c2c1
3. N#CC(=C1C=CC(=NO)C=C1)c1ccccc1
4. S=C1SCN(CCc2ccccc2)CN1CCc1ccccc1
5. CCN(CC)CCNC(=O)c1nn(-c2ccc(Cl)cc2)c2c1CCc1cc(OC)ccc1-2
6. CN(N=O)C(=O)N[C@@H](C=O)[C@@H](O)[C@H](O)[C@H](O)CO
7. CC1=CCC(C(C)(C)c2ccc(O)cc2)CC1 (stereo not drawn)
8. COc1cccc(C(c2cc3c(cc2O)OCO3)N2CCOCC2)c1OC (stereo not drawn)

A.
31
-2
1
1
12
-1
35
-3

The following compounds each have a reported value; give each one's growth inhibition.
1. N#C/C(=C1C=C(Br)/C(=N\O)C=C\1Cl)c1cccc2ccccc12
2. C=C1N(C)c2ccc(Cl)cc2C1(C)C

A.
1. 11
2. -23

====

MEASUREMENT_PROTOCOL: NCI Yeast Anticancer Drug Screen. Data for the sgs1 strain (AID 173);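 note: 0% = growth of vehicle-only control cultures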
TEST_CONDITIONS: S. cerevisiae sgs1 mutant, at 33.0 µM, stronger effect = higher value
Compounds without any hit were thinned out: in the full panel of roughly 79,000, 15% have a hit.
Response field class: string, computed from recorded growth inhibition by ranges low = under 20%, medium = from 20% up to 80%, high = 80% and over

Use the examples below as a reference point.
>>> class_name("COc1cccc(C(c2cc3c(cc2O)OCO3)N2CCOCC2)c1OC (stereo unspecified)")
"low"
>>> class_name("CN(NC(=O)/C(=C/c1ccc(O)cc1)NC(=O)c1ccccc1)c1ccnc2cc(Cl)ccc12")
"medium"
>>> class_name("OB(O)c1ccccc1C#Cc1ccccc1B(O)O")
"medium"
>>> class_name("O=Nn1c2ccccc2c2ccccc21")
"low"
>>> class_name("O=[N+]([O-])/C(C(Cl)=C(Cl)Cl)=C1/OCCS1")
"high"

Please find the next compound below.
Q. Could you tell me which band O=S1(=O)c2ccccc2N=C(c2ccccc2Cl)CC1c1ccc(F)cc1 (stereo unspecified) belongs to?
A. low
